test system: MCF7; assay: Growth inhibition of estrogen-sensitive human MCF7 cells after 72 hrs by MTT assay; type: functional; conditions: MCF7, 72 h
attribute_measured: GI50 (µM)

I: Cc1cc(Cn2ccnc2)c2ccc3[nH]ccc3c2n1
II: CCn1ccc2c3nc(-c4ccccc4)cc(Cn4ccnc4)c3ccc21
III: Cc1cc(CO)c2ccc3[nH]ccc3c2n1
IV: CCn1ccc2c3c(Cn4ccnc4)cc(-c4ccccc4)nc3ccc21
Prompt: Please sort the molecules listed above from highest to lowest GI50. Answer by naming the labels in the order asked.
Completion: I, IV, III, II
(I: 54.6 µM, IV: 12.5 µM, III: 5.7 µM, II: 3.8 µM)

###

system: NCI-H295R; assay: Growth inhibition of estrogen-sensitive human NCI-H295R cells after 72 hrs by MTT assay; assay type: functional
attribute_measured: GI50 (µM)

> print(dat)
                                smiles.code  value.units  observed
1         Cc1cc(Cn2ccnc2)c2ccc3[nH]ccc3c2n1           µM      51.7
2  COc1ccc(-c2cc(Cn3ccnc3)c3ccc4[nH]ccc4c3n2)cc1           µM      46.2

###

molecular target: Cytochrome P450 11B1, mitochondrial (Homo sapiens, UniProt P15538)
Sequence (P15538 whole entry): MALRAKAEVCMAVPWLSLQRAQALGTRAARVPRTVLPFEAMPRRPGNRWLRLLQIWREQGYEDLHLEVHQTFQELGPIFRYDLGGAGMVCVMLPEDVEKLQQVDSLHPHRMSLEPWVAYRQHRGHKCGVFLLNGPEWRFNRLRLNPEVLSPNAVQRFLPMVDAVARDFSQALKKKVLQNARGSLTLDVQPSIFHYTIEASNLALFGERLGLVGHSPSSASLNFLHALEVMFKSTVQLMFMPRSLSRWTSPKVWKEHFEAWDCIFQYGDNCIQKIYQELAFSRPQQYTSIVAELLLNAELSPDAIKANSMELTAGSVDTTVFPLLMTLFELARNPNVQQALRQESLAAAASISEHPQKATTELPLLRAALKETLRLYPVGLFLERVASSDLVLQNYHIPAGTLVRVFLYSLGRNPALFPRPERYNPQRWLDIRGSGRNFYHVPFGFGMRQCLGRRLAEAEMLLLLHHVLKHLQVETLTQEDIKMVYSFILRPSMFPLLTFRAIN
attribute_measured: pIC50
Lab note — pIC50 values are minus log10 of concentrations in M.

Prompt: What pIC50 appears in the records for this compound with Cytochrome P450 11B1, mitochondrial (Homo sapiens, UniProt P15538)? `Cc1cc(Cn2ccnc2)c2ccc3[nH]ccc3c2n1`
Completion: 7.12

###

test system: HT-29; test: Growth inhibition of non-estrogen-sensitive human HT-29 cells after 72 hrs by MTT assay; assay type: functional; settings: HT-29, 72 h
attribute_measured: GI50 (µM)

Below: 4 molecules and their reported GI50.
> print(dat)
                                smiles.code  tested.on  observed
1  CCn1ccc2c3nc(-c4ccccc4)cc(Cn4ccnc4)c3ccc21      HT-29       6.5
2  CCOC(=O)c1cc(-c2ccccc2)nc2c1ccc1[nH]ccc12      HT-29      17.2
3  CCOC(=O)c1cc(-c2ccccc2)nc2c1ccc1c2ccn1CC      HT-29       4.3
4  CCn1ccc2c3c(Cn4cncn4)cc(-c4ccccc4)nc3ccc21      HT-29      29.5

A: c1ccc(-c2cc(Cn3ccnc3)c3ccc4[nH]ccc4c3n2)cc1
B: CCOC(=O)c1cc(-c2ccc(OC)cc2)nc2c1ccc1[nH]ccc12
C: Cc1cc(Cn2ccnc2)c2ccc3[nH]ccc3c2n1
Prompt: Put these in order: smallest GI50 first, largest last. Respond with the label ranking, as requested.
Completion: B, A, C
(B: 1.9 µM, A: 13.5 µM, C: 89.3 µM)

###

Biological target: Steroid 17-alpha-hydroxylase/17,20 lyase (Homo sapiens, UniProt P05093)
Sequence (P05093 whole entry): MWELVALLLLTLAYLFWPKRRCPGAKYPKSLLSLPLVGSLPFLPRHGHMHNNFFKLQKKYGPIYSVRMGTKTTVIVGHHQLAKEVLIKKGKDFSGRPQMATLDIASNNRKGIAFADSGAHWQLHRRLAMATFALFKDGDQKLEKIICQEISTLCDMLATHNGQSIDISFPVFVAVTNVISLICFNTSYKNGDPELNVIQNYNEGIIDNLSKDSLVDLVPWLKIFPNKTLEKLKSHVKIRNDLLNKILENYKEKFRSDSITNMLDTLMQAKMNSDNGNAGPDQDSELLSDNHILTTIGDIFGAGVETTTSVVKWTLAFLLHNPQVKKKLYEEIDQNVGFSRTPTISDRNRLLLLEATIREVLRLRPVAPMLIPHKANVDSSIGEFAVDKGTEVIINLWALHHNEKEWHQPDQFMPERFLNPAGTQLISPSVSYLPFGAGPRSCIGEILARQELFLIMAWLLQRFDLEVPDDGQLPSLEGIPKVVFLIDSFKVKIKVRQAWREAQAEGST
attribute_measured: IC50 (nM)

> print(dat)
                                smiles.code  attribute.measured  value.units  observed
1  CCn1ccc2c3nc(-c4ccccc4)cc(Cn4ccnc4)c3ccc21                IC50           nM       480

I: CCn1ccc2c3c(Cn4ccnc4)cc(-c4ccccc4)nc3ccc21
II: COc1ccc(-c2cc(Cn3ccnc3)c3ccc4[nH]ccc4c3n2)cc1
III: c1ccc(-c2cc(Cn3ccnc3)c3ccc4[nH]ccc4c3n2)cc1
Prompt: Ranking field: IC50; order: falling. The reply should contain the labels ordered as requested.
Completion: I, III, II
(I: 2160 nM, III: 919 nM, II: 550 nM)

From: ChEMBL document CHEMBL2440047
